Origin of the recorded values: PubChem BioAssay (NCI)

Let's look at some compounds and their measured growth.
system: U251 CNS; experiment: NCI-60 one-dose screen, 48 h (100 = growth as untreated, 0 = no growth, -100 = all killed); settings: 10 µM unless noted
About 83,000 compounds went through this panel and 20% of them were active in at least one assay; those are over-represented in the sample as a whole. Calls of active or inactive are those of the source. How the source made its calls: active means growth percent below 10; inactive means the rest.

Reference set, count: 5
CN(C)c1ccc(Nc2cc(-c3cccc(OC(F)(F)F)c3)nc3ccc(N4CCCC4)cc23)cc1; -59.2% (active)
Oc1c(Cl)cc(Cl)c2ccc(Cn3cc(-c4cc(F)cc(F)c4)nn3)nc12; 96.2% (inactive)
CN1CCN(Cc2ccc(NC(=O)c3cncc(C#Cc4cnc(N)c5ccccc45)c3)cc2C(F)(F)F)CC1; -98.5% (active)
COc1ccc(-c2nn(-c3ccccc3)cc2/C=C2/SC(=S)N(C)C2=O)cc1; 8.95% (active)
O=C(O)CCCN1C(=O)/C(=C/C(Cl)=C/c2ccccc2)SC1=S; 21% (inactive)

What does the data say about its growth? Entry: COCCn1cc(-c2nc(-c3cc4cccnc4n3CCOC)cs2)c2cc(OC)ccc21 69.8% (inactive)

Consider the compound shown here: O=S(=O)(NCCNc1cc(-c2c(-c3cccc(O)c3)nc3sccn23)ccn1)c1ccc(C(F)(F)F)cc1 What is its recorded growth? 34.8% (inactive)

###

test system: OVCAR-8 ovarian; assay: NCI-60 one-dose screen, 48 h; conditions: 10 µM unless noted
This is part of a sample that, as a whole, favours compounds with a hit. Of some 83,000 tested, about 20% had one in any assay. The source made the active and inactive calls. The calls were made as follows: active = growth percent below 10; inactive = the rest.
Hello, when you answer, please use one of the following outcomes: y = active, n = inactive

Please review the following examples before continuing.
C/C(=N/O)c1ccc(F)cc1; n
CCN1CCN(c2cc(C(=O)Nc3nc(-c4cc(OC)c(OC)c(OC)c4)cs3)cc(C(F)(F)F)c2)CC1; n
CCCC(=O)NC(c1ccc2c(c1)OCO2)c1ccc2cccnc2c1O (centres undefined); y
OB(O)c1cccc(-c2nc3ccc4[nH]ncc4c3c3c2CCCC3)c1; n
O=C1Nc2ccccc2[C@]12CC(c1ccccc1)=NN2; n
Cc1c(-c2nc3ccc(F)cc3c(=O)[nH]2)c2ccccc2n1C; n

Call for entry O=[N+]([O-])C1C(c2ccccc2)C12c1ccccc1-c1ccccc12 (centres undefined) : y

Fill in: this test's call for Cc1ccccc1Cn1cnc2ccc(-c3cc(NC(=O)c4ccc(NC5CCN(C)CC5)cc4)n[nH]3)cc21 is ___ n

Record lookup: outcome of this test for C=CCc1c(O)c(C(=O)/C=C/c2ccc(Cl)cc2)c(OC)c2ccoc12 ? n

###

tested on: HS 578T breast; assay: NCI-60 one-dose screen, 48 h (100 = growth as untreated, 0 = no growth, -100 = all killed); conditions: 10 µM unless noted
The panel holds about 83,000 compounds, 20% with a hit somewhere; the sample as a whole holds those more often.
// returns criterion not met unless growth is strictly below 40%, in which case criterion met

Below, 2 compounds whose answers are already recorded.
CC1=Nc2cnc(Nc3ccc(OCCN4CCCC4)cc3)nc2Nc2ccccc21; criterion not met
COC(=O)c1n[nH]c2ccc3nc(-c4cn[nH]c4C(F)(F)F)c4c(c3c12)CCCC4; criterion met

# TODO verify growth < 40% strictly for this compound: CCOC(=O)c1cc(-c2ccc([N+](=O)[O-])cc2)n(-c2ccc(C(=O)O)c(O)c2)c1C criterion not met

# strict comparison: is reported growth < 40%? input = O=C(/C=C(/C=C/c1cccc2[nH]ccc12)OB(F)F)/C=C/c1cccc2[nH]ccc12 criterion met

Please let me know if Fc1ccc(Nc2nc3nonc3nc2Nc2ccc(I)cc2)cc1 shows growth below 40%. criterion met

# check: growth < 40% for COc1ccc(-c2csc(NC(=O)CSc3nc(-c4ccccc4)cc(=O)[nH]3)n2)cc1 criterion not met

###

test system: OVCAR-8 ovarian; assay: NCI-60 one-dose screen, 48 h (100 = growth as untreated, 0 = no growth, -100 = all killed); conditions: 10 µM unless noted
This is part of a sample that, as a whole, favours compounds with a hit. Of some 83,000 tested, about 20% had one in any assay.
This section presents molecules with their documented growth values.
Write it as a number; the unit % goes unstated.

O=C(O)c1[nH]c(=O)[nH]c(=O)c1[N+](=O)[O-]; 101
COc1cc(-c2cc(-c3ccc(N(C)C)cc3)nc(N3CCC(O)CC3)c2C#N)cc(OC)c1OC; 16.4
O=C(CCCCC1CCSS1)Nc1ncnc2n[nH]c(-c3ccc(Oc4ccccc4)cc3)c12 (stereo not drawn); 100

# ---- query molecule ----
Under OVCAR-8 ovarian: growth value of NC(=O)CCC(C(=O)O)N1C(=O)c2ccc(O)cc2C1=O (stereo not drawn) ? 106

###

test system: NCI-H226 lung; assay: NCI-60 one-dose screen, 48 h (100 = growth as untreated, 0 = no growth, -100 = all killed); conditions: 10 µM unless noted
The panel holds about 83,000 compounds, 20% with a hit somewhere; the sample as a whole holds those more often.
propertyMeasured: growth (%)
Give the value, in units of %, as a plain number.

The examples below pair each entry with its known result.
CCN(c1ccc(Cl)cc1)c1nc(-c2ccc([N+](=O)[O-])cc2)cs1; 91.9
COC(=O)c1c2c(c(C)[n+]([O-])c1C)C(=O)C(NCc1ccc(Cl)cc1)=CC2=O; 92.6
CC/C(=C(/c1ccc(Cl)cc1)c1ccc(OCCN2CCCC2)cc1)c1ccc(OC)cc1; 89
Cn1cc(-c2nc(-c3c[nH]c4ccncc34)cs2)c2ccccc21; 87.6

Next up:
Hello, I am looking for reported growth with NCI-H226 lung for COc1ccc(-c2nnc3n(C)c(=O)c4ccccc4n23)cc1N . Could you help? 70.1

###

Test system: HT29 colon
Assay: NCI-60 one-dose screen, 48 h (100 = growth as untreated, 0 = no growth, -100 = all killed)
Details: 10 µM unless noted
Procedure: Growth inhibition of the HT29 human tumor cell line is measured as a screen for anti-cancer activity. Cells are grown in 96 well plates and exposed to the test compound for 48 hours. Compounds are tested at a single concentration, which is 10^-5 M for most compounds. The reported endpoint is percent growth (GI% or GIPRCNT), where numbers from 0 - 100% represent growth inhibition, and numbers from -100% - 0 represent cell death. For example, a value of 40 represents 60% growth inhibition. […]
This is part of a sample that, as a whole, favours compounds with a hit. Of some 83,000 tested, about 20% had one in any assay.
propertyMeasured: growth (%)
Lab book: enter the figure in %, no units written.

C=C(CNCCc1ccc(O)cc1)[C@@H]1CC[C@]2(CO)CC[C@]3(C)[C@H](CC[C@@H]4[C@@]5(C)CCC(NCCO)C(C)(C)[C@@H]5CC[C@]43C)[C@@H]12 (some centres undefined); -44.1
O=C(CCc1nnc(Cn2cnc3nc[nH]c3c2=O)o1)c1nc2ncccc2[nH]1; 92

So what's the measured growth for this one? CN(C)CCNC(=O)c1cccc(-c2cnc3ccc(-c4ccc5c(c4)OCO5)nn23)c1 10.9

Quick one: growth for N#CC1=C(c2ccc(Cl)cc2)Nc2c(c(-c3ccc(Cl)cc3)nn2-c2ccccc2)C12C(=O)Nc1ccc(Cl)cc12 (centres undefined) ? 32.4

###

tested on: SK-MEL-5 melanoma; experiment: NCI-60 one-dose screen, 48 h (100 = growth as untreated, 0 = no growth, -100 = all killed); settings: 10 µM unless noted
Compounds without any hit were thinned out: in the full panel of roughly 83,000, 20% have a hit. The source made the active and inactive calls. Rule for the calls: active = growth percent below 10; inactive = the rest.
propertyMeasured: growth

Reference set (6 entries):
O=C1CC(N2C(=O)/C(=C/C(Cl)=C\c3ccc([N+](=O)[O-])cc3)SC2=S)C(=O)N1c1ccc(Cl)cc1 (configuration not stated); 59.9% (inactive)
Cc1ccc(CNc2ccc(Cl)cc2NCc2ccc(C)c(O)c2)cc1O; 32.7% (inactive)
COc1ccc(-c2cc(-c3ccc(Cl)cc3)c(C#N)c(=O)n2CCCCC(=O)Nc2ccccc2N)cc1; -39.1% (active)
COc1cc(NC(C)CCCNC(C)C)c2ncccc2c1OC (configuration not stated); 97.9% (inactive)
CCN(CC)CCOc1ccc(C(=C(C)c2ccc(Cl)cc2)c2ccc(OCCN(CC)CC)cc2)cc1; -98% (active)
COc1cccc(NC(=O)Cn2cc(CN3CCN(c4ccnc5cc(Cl)ccc45)CC3)nn2)c1; 59.3% (inactive)

Using the record for CCn1c(=S)sc2c(Nc3ccc(F)cc3)nc(-c3cccnc3)nc21 , report its growth. 87.7% (inactive)

Give the measured growth of C#Cc1ccc(NC(=O)c2ccc(/C=C/C(=O)c3nccn3C)cc2)cc1 . -94.3% (active)

Entry under review: Cc1ccc2c(n1)C(=O)c1[nH]c3ccccc3c1C2=O . Reported growth? -94% (active)

So what does the record say about growth for CN1C(=O)/C(=C/c2ccc(C(=O)Nc3ncc(Cc4ccc(Cl)cc4)s3)cc2)SC1=S ? 26.2% (inactive)

Recorded growth of Cc1cc(N)c2cc(NC(=O)/C=C\c3ccccc3Cl)ccc2n1 , please. -94.9% (active)

Need growth of CCC(C)N(c1ccc(Cl)cc1)c1nc(-c2ccc(Br)cc2)cs1 (configuration not stated) , thanks. 104% (inactive)

Please give the measured growth for this compound: Brc1c2c(c(Br)c3ccccc13)CCCC2 98.3% (inactive)

Item O=C(NCCCCNC(=O)OCc1ccc2c(Cl)cc(Cl)c(O)c2n1)OCc1ccc2c(Cl)cc(Cl)c(O)c2n1 has what recorded growth? -46.4% (active)

Which growth value is on record for O=C(/C=C(/C=C/c1cccc2[nH]ccc12)OB(F)F)/C=C/c1cccc2[nH]ccc12 ? -78.3% (active)

Given COc1cc(N2C(=O)[C@H](O)C2c2ccc(SC)cc2)cc(OC)c1OC (some centres not stated) , state its recorded growth. -13.8% (active)

# input compound: CC1(C)CCC(S(=O)(=O)c2ccc3c(c2)/C(=N\O)c2cc(S(=O)(=O)N4CCC(O)(c5cccc(C(F)(F)F)c5)CC4)ccc2-3)CC1 ; wanted: its growth -92.7% (active)

What does the record list as growth for CC1=C(Nc2ccc(N3CCN(C)CC3)cc2)C(=O)c2cncnc2C1=O ? 81.5% (inactive)

What value of growth has been recorded for this entry: O=C(CN1C(=O)CCC1=O)Nc1ncc(Cc2ccc(F)cc2)s1 99.6% (inactive)

Name the recorded growth for Cc1ccccc1/C=C1\CN(C(=O)OC(C)(C)C)C/C(=C\c2ccccc2C)C1=O . 83% (inactive)

What value of growth has been reported for the following compound? Cn1cc(-c2csc(-c3ccc(Cl)cc3)n2)c2cccnc21 -86.9% [100 µM] (active)

Item under review: CCCCC(=O)Nc1ncc(Cc2ccc(Cl)cc2)s1 . Reported growth? 80.3% (inactive)
